- target under test: T1, human CD8 alpha (CD8A) on primary human CD8+ T cells (human, UniProt P01732 22-235)
- T1 construct: whole, on cells; also called hCD8A
- T1 sequence (P01732 22-235): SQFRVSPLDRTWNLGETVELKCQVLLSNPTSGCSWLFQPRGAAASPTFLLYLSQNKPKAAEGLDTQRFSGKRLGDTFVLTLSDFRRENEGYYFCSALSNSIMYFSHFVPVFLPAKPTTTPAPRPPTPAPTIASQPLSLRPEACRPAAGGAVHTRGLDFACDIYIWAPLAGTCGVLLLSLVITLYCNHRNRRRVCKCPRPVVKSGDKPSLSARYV
- procedure details: flow cytometry, human CD8+ T cells, 0.2 uM FN3
measured parameter: Human T-cell Binding 0.2 uM (MFI)
One number for each entry, in MFI.

binder	units of measure	Human T-cell Binding 0.2 uM (MFI)
P283AR9P1362_F12 (designed binder, FN3 domain) LPAPKNLVVSRVTEDSARLSWARNITSFDSFLIQYQESEKVGEAIVLTVPGSERSYDLTGLKPGTEYTVSIYGVDVKYDIDSRPISSNPLSAIFTT	MFI	2620

# ---- query binder ----
Problem: May I ask what Human T-cell Binding 0.2 uM (MFI) has been recorded for P282DR9P1359_E3 (designed binder, FN3 domain) LPAPKNLVVSRVTEDSARLSWTAPDAAFDSFAIAYPELPLGGEAIVLTVPGSERSYDLTGLKPGTEYFVIIYGVKGGVESFPLSAIFTT ?
Result: 349
